# Test system: Staphylococcus aureus
# Test Description: Bactericidal activity against Staphylococcus aureus wound isolate after 24 hr by NCCLS dilution tube method
# Format: functional
Endpoint Name: MBC (µg/mL)
All answers are understood in µg/mL, so give the number only.

Cn1cnc2c3c(Cl)c4ccccc4nc3ccc21; 72.3

Look up MBC for this compound: CC(C)(O/N=C(\C(=O)N[C@@H]1C(=O)N2C(C(=O)[O-])=C(C[n+]3ccccc3)CS[C@H]12)c1csc(N)n1)C(=O)O [CEFTAZIDIME]
63.5

Recorded MBC for CCn1cc(C(=O)O)c(=O)c2cc(F)c(N3CCNCC3)cc21 [NORFLOXACIN] , please?
9.8

Entry CO/N=C(\C(=O)N[C@@H]1C(=O)N2C(C(=O)O)=C(COC(C)=O)CS[C@H]12)c1csc(N)n1 [CEFOTAXIME] : reported MBC = ?
12.7

Suppose we examine the compound NC[C@H]1O[C@H](O[C@H]2[C@H](O)[C@@H](O[C@H]3O[C@H](CO)[C@@H](O)[C@H](N)[C@H]3O)[C@H](N)C[C@@H]2N)[C@H](N)C[C@@H]1O [TOBRAMYCIN] ; what MBC value has been reported?
17.3

Please give the measured MBC for this compound: CCn1cc(C(=O)O)c(=O)c2ccc(C)nc21 [NALIDIXIC ACID]
81.6

----------
logD at 6 h values by entry
# Test Description: Octanol-water partition coefficient, log D of the compound at pH 7.4 after 6 hr by shake flask method
# Type: physicochemical
I'd appreciate a reply containing only the number, no unit.

Cn1cnc2c3c(Cl)c4ccccc4nc3ccc21; 0.52
CCCn1cnc2c3c(Cl)c4ccccc4nc3ccc21; 1.09

Then there is this molecule:
Report logD at 6 h for `CCCCCn1cnc2c3c(Cl)c4ccccc4nc3ccc21` please.
1.48
